Biological target: T1, CSP Protein (Plasmodium falciparum, UniProt Q7K740 19-374)
T1 construct: also called circumsporozoite protein; complete CSP protein
T1 sequence (Q7K740 19-374 limits assumed): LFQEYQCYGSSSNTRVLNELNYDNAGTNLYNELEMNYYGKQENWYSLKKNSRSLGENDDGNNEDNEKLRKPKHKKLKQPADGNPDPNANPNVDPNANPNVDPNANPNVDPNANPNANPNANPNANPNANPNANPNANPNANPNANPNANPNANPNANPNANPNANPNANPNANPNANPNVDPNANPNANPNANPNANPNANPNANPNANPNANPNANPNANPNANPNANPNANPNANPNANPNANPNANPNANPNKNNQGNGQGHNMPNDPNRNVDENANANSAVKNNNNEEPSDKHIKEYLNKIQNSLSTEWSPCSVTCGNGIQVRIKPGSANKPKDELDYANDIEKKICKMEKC
Test: SPR, antibody on chip;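 also: antibodies immobilized on a Carterra chip, directly or via anti-human Fc capture, at two spots each, with CSP flowed over at 4-5 concentrations peaking at 0.5-8 µg/mL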
pKd: −log10 of the molar value.
assay endpoint: pKd

AB-007043 (antibody, V domains shown) VH: QMQLVESGGGVVQPGRSLRLSCTASGFTFSTYAMHWVRQSPGQGLQWVAVISYHSTNKYYEDSVRGRFTISRDNSKNTLYLQMNSLRAEDTAVYYCARDGYSSSFFDFWGQGTLVTVSS VL: DIQMTQSPSTLSASVGDRVAITCRASQSISRWLAWYQQQPGKAPKLLMSGASVLEDGVPSRFSGSGSGTEFTLTISSLQPDDFATYYCQHYNSYFVTFGQGTKVEIK ... 10.37
AB-007041 (antibody, V domains shown) VH: QMQLVESGGGVVQPGRSLRLSCTASGFTFSDYAMHWVRQSPGQGLQWVAVISYHSTNKYYEDSVRGRFTISRDNSKNTLYLQMNSLRAEDTAVYYCARDGYSSSFFDFWGQGTLVTVSS VL: DIQMTQSPSTLSASVGDRVAITCRASQSISRWLAWYQQQPGKAPKLLMSGASVLESGVPSRFSGSGSGTEFTLTISSLQPDDFATYYCQHYNSYFVTFGQGTKVEIK ... 10.36
AB-007032 (antibody, V domains shown) VH: QVQLVESGGGVVQPGRSLRLSCAASGFTFSTYAMHWVRQAPGQGLQWVAVISYHSTNKYYEDSVRGRFTISRDNSKNTLYLQMNSLRAEDTAVYYCARDGYSSSFFDFWGQGTLVTVSS VL: DIQMTQSPSTLSASVGDRVTITCRASQSISRWLAWYQQQPGKAPKLLISGASVLESGVPSRFSGSGSGTEFTLTISSLQPDDFATYYCQHYNSYFVTFGQGTKVEIK ... 10.33
AB-007068 (antibody, V domains shown) VH: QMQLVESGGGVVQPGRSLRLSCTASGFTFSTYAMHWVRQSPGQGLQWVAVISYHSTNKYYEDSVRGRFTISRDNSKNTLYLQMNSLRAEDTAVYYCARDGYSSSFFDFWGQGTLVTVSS VL: DIQMTQSPSTLSASVGDRVAITCRASQSISRWLAWYQQQPGKAPKLLMSLASVLESGVPSRFSGSGSGTEFTLTISSLQPDDFATYYCQHYNSYFVTFGQGTKVEIK ... 9.82
AB-007038 (antibody, V domains shown) VH: QMQLVESGGGVVQPGRSLRLSCTASGFTFSTYAMHWVRQSPGQGLQWVAVISYHSTNKYYEDSVRGRFTISRDNSKNTLYLQMNSLRAEDTAVYYCARDGYSSSFFDYWGQGTLVTVSS VL: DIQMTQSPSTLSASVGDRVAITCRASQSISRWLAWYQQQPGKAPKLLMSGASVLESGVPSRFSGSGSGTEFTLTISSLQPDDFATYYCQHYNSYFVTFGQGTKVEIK ... 10.54
